- System: Rattus norvegicus
- Protocol Text: Antidiuretic effect measured as increase in osmolality over control in water-loaded Sprague-Dawley rat at 10 mg/kg, po
- Assay type: functional, Urine
Exam item: assign Satisfied to entries whose Activity is below 200% and Not satisfied to entries at or above 200%. Note that a value of exactly 200% receives Not satisfied.

Examples with answers:
> print(dat)
                           molecular.string      tested.target    label.value
1  Cc1ccn(-c2ccc(C(=O)N3Cc4cccnc4N(C)c4ccccc43)c(Cl)c2)n1  Rattus norvegicus  Not satisfied
2  Cc1ccn(-c2ccc(C(=O)N3Cc4cccnc4Nc4ccccc43)c(F)c2)n1  Rattus norvegicus  Not satisfied
3  Cc1ccn(-c2ccc(C(=O)N3Cc4cccnc4Nc4ccccc43)c(Br)c2)n1  Rattus norvegicus  Not satisfied
4  O=C(c1ccc(-n2ccc(C(F)(F)F)n2)cc1C(F)(F)F)N1Cc2cccnc2Nc2ccccc21  Rattus norvegicus      Satisfied
5  O=C(c1ccc(-n2ccc(-c3ccncc3)n2)cc1Br)N1Cc2cccnc2Nc2ccccc21  Rattus norvegicus      Satisfied

Dear colleague, could you confirm whether Activity of "Cc1ccn(-c2cc(F)ccc2C(=O)N2Cc3cccnc3Nc3ccccc32)n1" falls below 200%? Thanks.
Satisfied

Dear colleague, could you confirm whether Activity of "CN1c2ccccc2N(C(=O)c2ccc(-c3ccn(C)n3)cc2Cl)Cc2cccnc21" falls below 200%? Thanks.
Satisfied

The reported numbers originate from ChEMBL document CHEMBL1149468.
